Tested on: HeLa
Method: MTT cytotoxicity assay, HeLa
Type: cell-based, human
Assay Conditions: Homo sapiens, HeLa, 48 h, mean ± SD
Entries and their pIC50 values follow.
Just the number, please; pIC50 means minus log10 of the concentration in mol/L.

Supply pIC50 value. Item: COc1ccc2cc([C@H](C)C(=O)NC(=S)Nc3ccccc3C)ccc2c1 [Compound 10]
3.96

Supply pIC50 value. Item: COc1ccc2cc([C@H](C)C(=O)NC(=S)Nc3ccccc3)ccc2c1 [Compound 8]
4.01

Supply pIC50 value. Item: COC(=O)[C@H](Cc1c[nH]c2ccccc12)NC(=S)NC(=O)[C@@H](C)c1ccc2cc(OC)ccc2c1 [Compound 14]
3.82

Supply pIC50 value. Item: COc1ccc2cc([C@H](C)C(=O)NC(=S)Nc3ccccc3F)ccc2c1 [Compound 12]
3.99

---

Tested on: carrageenan-induced rat paw edema
Method: Carrageenan-induced rat paw edema model
Type: in vivo
Assay Conditions: 10.0 mg/kg, 1 h after carrageenan; mean ± SD
Entries and their Rat Paw Thickness values follow.
Please state the figure in mm; there is no need to write the unit.

1) COc1ccc2cc([C@H](C)C(=O)NC(=S)Nc3ccccc3C)ccc2c1; 6.20
2) COc1ccc2cc([C@H](C)C(=O)NC(=S)Nc3ccccc3F)ccc2c1; 6.33
3) COC(=O)[C@H](Cc1ccccc1)NC(=S)NC(=O)[C@@H](C)c1ccc2cc(OC)ccc2c1; 6.77

Supply Rat Paw Thickness value. Item: COC(=O)[C@H](Cc1c[nH]c2ccccc12)NC(=S)NC(=O)[C@@H](C)c1ccc2cc(OC)ccc2c1
7.03

Supply Rat Paw Thickness value. Item: COc1ccc2cc([C@H](C)C(=O)NC(=S)Nc3ccccc3)ccc2c1
6.0

---

System: carrageenan-induced rat paw edema
Method: Carrageenan-induced rat paw edema model
Assay type: in vivo
Assay Conditions: Rattus norvegicus; 5.0 mg/kg, 2 h
Entries and their inhibition in vivo at 5 mg/kg values follow.
Please state the figure in %; there is no need to write the unit.

Use the examples below as a reference point.
1) COc1ccc2cc([C@H](C)C(=O)NC(=S)Nc3ccccc3C)ccc2c1 [Compound 10]; 36.4
2) COc1ccc2cc([C@H](C)C(=O)NC(=S)Nc3ccc(C)cc3)ccc2c1 [Compound 9]; 27.3
3) COC(=O)[C@H](Cc1ccccc1)NC(=S)NC(=O)[C@@H](C)c1ccc2cc(OC)ccc2c1 [Compound 13]; 9.09
4) COc1ccc2cc([C@H](C)C(=O)O)ccc2c1 [Naproxen, naproxen]; 42.4
5) COC(=O)[C@H](Cc1c[nH]c2ccccc12)NC(=S)NC(=O)[C@@H](C)c1ccc2cc(OC)ccc2c1 [Compound 14]; 27.3

Supply inhibition in vivo at 5 mg/kg value. Item: COc1ccc2cc([C@H](C)C(=O)NC(=S)Nc3ccccc3OC)ccc2c1 [Compound 11]
24.2

Supply inhibition in vivo at 5 mg/kg value. Item: COc1ccc2cc([C@H](C)C(=O)NC(=S)Nc3ccccc3F)ccc2c1 [Compound 12]
19.7

Supply inhibition in vivo at 5 mg/kg value. Item: COc1ccc2cc([C@H](C)C(=O)NC(=S)Nc3ccccc3)ccc2c1 [Compound 8]
24.2

---

Entries and their IC50 values follow.
System: MDA-MB-231
Method: MTT cytotoxicity assay, MDA-MB-231
Assay type: cell-based, human
Assay Conditions: Homo sapiens, MDA-MB-231, 72 h, 72 h, mean ± SD
Please state the figure in µM; there is no need to write the unit.

Use the examples below as a reference point.
1) COc1ccc2cc([C@H](C)C(=O)NC(=S)Nc3ccc(C)cc3)ccc2c1; 112
2) COc1ccc2cc([C@H](C)C(=O)NC(=S)Nc3ccccc3C)ccc2c1; 42
3) COC(=O)[C@H](Cc1c[nH]c2ccccc12)NC(=S)NC(=O)[C@@H](C)c1ccc2cc(OC)ccc2c1; 117

Consider now this further compound.
Supply IC50 value. Item: COC(=O)[C@H](Cc1ccccc1)NC(=S)NC(=O)[C@@H](C)c1ccc2cc(OC)ccc2c1
99.5

---

Test system: HeLa
Method: MTT cytotoxicity assay, HeLa
Format: cell-based, human
Assay Conditions: Homo sapiens, HeLa, 24 h, mean ± SD
Entries and their IC50 values follow.

Use the examples below as a reference point.
1. COc1ccc2cc([C@H](C)C(=O)NC(=S)Nc3ccccc3F)ccc2c1; 135 µM
2. COc1ccc2cc([C@H](C)C(=O)NC(=S)Nc3ccccc3OC)ccc2c1; > 200 µM
3. COc1ccc2cc([C@H](C)C(=O)NC(=S)Nc3ccccc3C)ccc2c1; > 200 µM
4. COC(=O)[C@H](Cc1ccccc1)NC(=S)NC(=O)[C@@H](C)c1ccc2cc(OC)ccc2c1; > 200 µM
5. COc1ccc2cc([C@H](C)C(=O)NC(=S)Nc3ccc(C)cc3)ccc2c1; > 200 µM

Give the observed IC50 of COc1ccc2cc([C@H](C)C(=O)NC(=S)Nc3ccccc3)ccc2c1 for HeLa.
> 140 µM

Give the observed IC50 of COc1ccc2cc([C@H](C)C(=O)O)ccc2c1 for HeLa.
> 200 µM

Give the observed IC50 of COC(=O)[C@H](Cc1c[nH]c2ccccc12)NC(=S)NC(=O)[C@@H](C)c1ccc2cc(OC)ccc2c1 for HeLa.
> 200 µM

---

Test system: carrageenan-induced rat paw edema
Method: Carrageenan-induced rat paw edema model
Type: in vivo
Assay Conditions: 5.0 mg/kg, 2 h after carrageenan; mean ± SD
Assay Metric: Rat Paw Thickness (mm)
Please state the figure in mm; there is no need to write the unit.

1) COc1ccc2cc([C@H](C)C(=O)NC(=S)Nc3ccc(C)cc3)ccc2c1; 6.23

Supply Rat Paw Thickness value. Item: COC(=O)[C@H](Cc1c[nH]c2ccccc12)NC(=S)NC(=O)[C@@H](C)c1ccc2cc(OC)ccc2c1
6.53

Supply Rat Paw Thickness value. Item: COc1ccc2cc([C@H](C)C(=O)NC(=S)Nc3ccccc3F)ccc2c1
5.83

Supply Rat Paw Thickness value. Item: COC(=O)[C@H](Cc1ccccc1)NC(=S)NC(=O)[C@@H](C)c1ccc2cc(OC)ccc2c1
6.43

Supply Rat Paw Thickness value. Item: COc1ccc2cc([C@H](C)C(=O)NC(=S)Nc3ccccc3C)ccc2c1
6.13

Supply Rat Paw Thickness value. Item: COc1ccc2cc([C@H](C)C(=O)NC(=S)Nc3ccccc3)ccc2c1
5.8

Supply Rat Paw Thickness value. Item: COc1ccc2cc([C@H](C)C(=O)NC(=S)Nc3ccccc3OC)ccc2c1
6.73

Supply Rat Paw Thickness value. Item: COc1ccc2cc([C@H](C)C(=O)O)ccc2c1
5.52

---

Entries and their Rat Paw Thickness values follow.
Test system: carrageenan-induced rat paw edema
Method: Carrageenan-induced rat paw edema model
Assay type: in vivo
Assay Conditions: 5.0 mg/kg, 1 h after carrageenan; mean ± SD
Please state the figure in mm; there is no need to write the unit.

Use the examples below as a reference point.
1) COc1ccc2cc([C@H](C)C(=O)NC(=S)Nc3ccccc3F)ccc2c1; 6.07
2) COc1ccc2cc([C@H](C)C(=O)O)ccc2c1; 6.02
3) COc1ccc2cc([C@H](C)C(=O)NC(=S)Nc3ccccc3C)ccc2c1; 6.47
4) COc1ccc2cc([C@H](C)C(=O)NC(=S)Nc3ccc(C)cc3)ccc2c1; 6.53

Supply Rat Paw Thickness value. Item: COc1ccc2cc([C@H](C)C(=O)NC(=S)Nc3ccccc3)ccc2c1
6.0

---

Test system: carrageenan-induced rat paw edema
Method: Carrageenan-induced rat paw edema model
Assay type: in vivo
Assay Conditions: 5.0 mg/kg, 4 h after carrageenan; mean ± SD
Assay Metric: Rat Paw Thickness (mm)
Please state the figure in mm; there is no need to write the unit.

Use the examples below as a reference point.
1) COc1ccc2cc([C@H](C)C(=O)O)ccc2c1; 4.98
2) COc1ccc2cc([C@H](C)C(=O)NC(=S)Nc3ccccc3F)ccc2c1; 5.03
3) COc1ccc2cc([C@H](C)C(=O)NC(=S)Nc3ccccc3OC)ccc2c1; 6.07
4) COC(=O)[C@H](Cc1c[nH]c2ccccc12)NC(=S)NC(=O)[C@@H](C)c1ccc2cc(OC)ccc2c1; 5.80
5) COc1ccc2cc([C@H](C)C(=O)NC(=S)Nc3ccccc3C)ccc2c1; 5.67
6) COc1ccc2cc([C@H](C)C(=O)NC(=S)Nc3ccc(C)cc3)ccc2c1; 5.50
7) COC(=O)[C@H](Cc1ccccc1)NC(=S)NC(=O)[C@@H](C)c1ccc2cc(OC)ccc2c1; 5.47

Consider now this further compound.
Supply Rat Paw Thickness value. Item: COc1ccc2cc([C@H](C)C(=O)NC(=S)Nc3ccccc3)ccc2c1
4.96

---

Entries and their inhibition in vivo at 2.5 mg/kg values follow.
Test system: carrageenan-induced rat paw edema
Method: Carrageenan-induced rat paw edema model
Type: in vivo
Assay Conditions: Rattus norvegicus; 2.5 mg/kg, 1 h
Please state the figure in %; there is no need to write the unit.

1) COC(=O)[C@H](Cc1c[nH]c2ccccc12)NC(=S)NC(=O)[C@@H](C)c1ccc2cc(OC)ccc2c1; 12.9
2) COc1ccc2cc([C@H](C)C(=O)NC(=S)Nc3ccccc3C)ccc2c1; 18.4
3) COC(=O)[C@H](Cc1ccccc1)NC(=S)NC(=O)[C@@H](C)c1ccc2cc(OC)ccc2c1; 6.12
4) COc1ccc2cc([C@H](C)C(=O)NC(=S)Nc3ccccc3F)ccc2c1; 8.84
5) COc1ccc2cc([C@H](C)C(=O)NC(=S)Nc3ccc(C)cc3)ccc2c1; 25.2

Give the observed inhibition in vivo at 2.5 mg/kg of COc1ccc2cc([C@H](C)C(=O)NC(=S)Nc3ccccc3OC)ccc2c1 for carrageenan-induced rat paw edema.
22.4

Give the observed inhibition in vivo at 2.5 mg/kg of COc1ccc2cc([C@H](C)C(=O)O)ccc2c1 for carrageenan-induced rat paw edema.
19.7

Give the observed inhibition in vivo at 2.5 mg/kg of COc1ccc2cc([C@H](C)C(=O)NC(=S)Nc3ccccc3)ccc2c1 for carrageenan-induced rat paw edema.
19.7
